Consider the following compounds; for each one, report its % engagement CUL5_C112.
Molecular target: CUL5_C112 (Homo sapiens)
Construct: endogenous in cells; host or cells: 22Rv1
Sequence (Q93034 whole entry): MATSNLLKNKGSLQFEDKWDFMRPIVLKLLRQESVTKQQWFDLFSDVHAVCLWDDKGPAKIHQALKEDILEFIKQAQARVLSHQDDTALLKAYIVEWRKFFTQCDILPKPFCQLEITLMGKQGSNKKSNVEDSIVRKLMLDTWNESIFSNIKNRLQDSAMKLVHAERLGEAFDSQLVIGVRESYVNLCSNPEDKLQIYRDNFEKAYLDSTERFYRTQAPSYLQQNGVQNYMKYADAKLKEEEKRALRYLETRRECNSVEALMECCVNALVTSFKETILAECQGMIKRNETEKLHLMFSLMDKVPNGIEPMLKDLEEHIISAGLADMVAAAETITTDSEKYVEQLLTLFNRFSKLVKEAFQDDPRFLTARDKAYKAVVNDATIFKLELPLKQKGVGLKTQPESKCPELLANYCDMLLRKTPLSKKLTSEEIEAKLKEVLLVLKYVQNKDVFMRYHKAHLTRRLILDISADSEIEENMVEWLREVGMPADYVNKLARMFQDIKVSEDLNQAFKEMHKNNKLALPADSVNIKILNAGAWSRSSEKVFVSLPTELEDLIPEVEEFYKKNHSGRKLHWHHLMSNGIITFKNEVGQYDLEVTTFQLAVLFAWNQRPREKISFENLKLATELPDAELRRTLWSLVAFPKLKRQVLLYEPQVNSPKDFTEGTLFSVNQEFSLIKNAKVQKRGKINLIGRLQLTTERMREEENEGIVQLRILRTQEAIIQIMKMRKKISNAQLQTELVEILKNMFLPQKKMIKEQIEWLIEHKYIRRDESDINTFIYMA
Assay: IA-DTB cysteine engagement
Assay type: binding
Conditions: 22Rv1 cells, 20 μM probe, 1 h, relative to DMSO
Answers are plain numbers, in %.

{"COMPOUND": "C=CC(=O)N1C[C@@H](c2ccc(Br)cc2)[C@H]1C(=O)Nc1cccc2cccnc12", "% engagement CUL5_C112, %": 95.5}
{"COMPOUND": "C=CC(=O)N1C[C@H](c2ccc(Br)cc2)[C@@H]1C(=O)Nc1cccc2cccnc12", "% engagement CUL5_C112, %": 11}
{"COMPOUND": "C=CC(=O)N1C[C@H](c2ccc(Br)cc2)[C@H]1C(=O)Nc1cccc2cccnc12 [MY-3B]", "% engagement CUL5_C112, %": "−20"}

Now turn to the next compound.
[Q] Tell us which % engagement CUL5_C112 value is on record for C=CC(=O)N1C[C@H](c2ccc(Br)cc2)[C@H]1C(=O)Nc1cccc2cccnc12 [MY-3A]
[A] −14.75

---

Provide the reported % engagement RETSAT_C547 of each item.
Target: RETSAT_C547 (Homo sapiens, UniProt Q6NUM9)
Construct: endogenous in cells; host or cells: 22Rv1
Sequence (Q6NUM9 19-610): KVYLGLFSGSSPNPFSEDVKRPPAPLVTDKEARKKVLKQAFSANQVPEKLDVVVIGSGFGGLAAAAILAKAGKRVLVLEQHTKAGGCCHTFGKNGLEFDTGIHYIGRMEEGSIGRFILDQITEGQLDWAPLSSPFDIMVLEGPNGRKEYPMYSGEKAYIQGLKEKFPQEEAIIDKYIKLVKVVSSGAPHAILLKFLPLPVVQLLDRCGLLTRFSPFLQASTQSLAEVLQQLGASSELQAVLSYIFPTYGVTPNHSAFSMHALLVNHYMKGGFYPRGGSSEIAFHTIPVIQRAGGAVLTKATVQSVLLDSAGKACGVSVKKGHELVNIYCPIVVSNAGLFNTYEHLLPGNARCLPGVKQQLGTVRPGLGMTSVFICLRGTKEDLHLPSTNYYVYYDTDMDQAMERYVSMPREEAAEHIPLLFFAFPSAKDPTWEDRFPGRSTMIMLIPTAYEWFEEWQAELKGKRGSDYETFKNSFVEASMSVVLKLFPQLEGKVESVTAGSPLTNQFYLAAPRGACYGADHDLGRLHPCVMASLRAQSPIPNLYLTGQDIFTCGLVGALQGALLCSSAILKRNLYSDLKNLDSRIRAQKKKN
Experiment: IA-DTB cysteine engagement
Format: binding
Conditions: 22Rv1 cells, 20 μM probe, 1 h, relative to DMSO
Give bare numbers, in %.

Examples from the recorded data:
{"COMPOUND": "C=CC(=O)N1C[C@@H](c2ccc(Br)cc2)[C@H]1C(=O)Nc1cccc2cccnc12 [MY-1A]", "% engagement RETSAT_C547 (%)": 80}
{"COMPOUND": "C=CC(=O)N1C[C@H](c2ccc(Br)cc2)[C@H]1C(=O)Nc1cccc2cccnc12 [MY-3A]", "% engagement RETSAT_C547 (%)": 53.5}

Please supply % engagement RETSAT_C547 for each of the following items, keeping them in order.
1. C=CC(=O)N1C[C@H](c2ccc(Br)cc2)[C@H]1C(=O)Nc1cccc2cccnc12 [MY-3B]
2. C=CC(=O)N1C[C@H](c2ccc(Br)cc2)[C@@H]1C(=O)Nc1cccc2cccnc12 [MY-1B]

[A]
1: 71.25; 2: 66.75

---

Molecular target: BCKDK_C111 (Homo sapiens, UniProt O14874)
Construct: endogenous in cells; host or cells: 22Rv1
Assay: IA-DTB cysteine engagement
Assay type: binding
Details: 22Rv1 cells, 20 μM probe, 1 h, relative to DMSO
Assign % engagement BCKDK_C111 to each entry below.
Numbers only, in %.

Solved cases below.
{"COMPOUND": "C=CC(=O)N1C[C@H](c2ccc(Br)cc2)[C@@H]1C(=O)Nc1cccc2cccnc12 [MY-1B]", "UNIT_INFO": "%", "% engagement BCKDK_C111": 14.5}
{"COMPOUND": "C=CC(=O)N1C[C@@H](c2ccc(Br)cc2)[C@H]1C(=O)Nc1cccc2cccnc12 [MY-1A]", "UNIT_INFO": "%", "% engagement BCKDK_C111": 17.25}
{"COMPOUND": "C=CC(=O)N1C[C@H](c2ccc(Br)cc2)[C@H]1C(=O)Nc1cccc2cccnc12 [MY-3A]", "UNIT_INFO": "%", "% engagement BCKDK_C111": 19.5}

We next turn to a different compound, shown below.
[Q] Please list % engagement BCKDK_C111 recorded for the compound C=CC(=O)N1C[C@H](c2ccc(Br)cc2)[C@H]1C(=O)Nc1cccc2cccnc12 [MY-3B]
[A] 76.75

---

Target: ABCB8_C454 (Homo sapiens, UniProt Q9NUT2)
Construct: endogenous in cells; host or cells: 22Rv1
Sequence (Q9NUT2 26-735): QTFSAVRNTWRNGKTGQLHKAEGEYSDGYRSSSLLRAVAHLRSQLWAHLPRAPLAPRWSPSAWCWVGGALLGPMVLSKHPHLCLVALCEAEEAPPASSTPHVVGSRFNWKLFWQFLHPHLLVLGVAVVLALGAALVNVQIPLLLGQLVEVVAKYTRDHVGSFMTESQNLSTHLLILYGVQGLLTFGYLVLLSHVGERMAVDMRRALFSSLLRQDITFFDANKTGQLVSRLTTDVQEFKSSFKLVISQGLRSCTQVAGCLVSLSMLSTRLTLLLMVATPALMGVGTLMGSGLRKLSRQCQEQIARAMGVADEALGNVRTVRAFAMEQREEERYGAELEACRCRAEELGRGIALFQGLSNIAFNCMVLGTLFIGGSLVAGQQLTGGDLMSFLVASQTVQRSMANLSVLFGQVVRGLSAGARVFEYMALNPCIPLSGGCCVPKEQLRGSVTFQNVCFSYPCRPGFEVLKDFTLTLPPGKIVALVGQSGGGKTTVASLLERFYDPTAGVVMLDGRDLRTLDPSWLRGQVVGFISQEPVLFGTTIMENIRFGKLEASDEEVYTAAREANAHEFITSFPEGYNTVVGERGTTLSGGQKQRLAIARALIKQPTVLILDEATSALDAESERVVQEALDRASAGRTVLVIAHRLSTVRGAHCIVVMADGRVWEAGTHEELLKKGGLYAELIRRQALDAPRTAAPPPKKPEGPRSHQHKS
Test: IA-DTB cysteine engagement
Assay type: binding
Settings: 22Rv1 cells, 20 μM probe, 1 h, relative to DMSO
For each record, write down the corresponding % engagement ABCB8_C454.
Answers are plain numbers, in %.

{"COMPOUND": "C=CC(=O)N1C[C@@H](c2ccc(Br)cc2)[C@H]1C(=O)Nc1cccc2cccnc12", "% engagement ABCB8_C454, %": "−1.25"}

I need % engagement ABCB8_C454 for every entry listed below, if you could help.
1. C=CC(=O)N1C[C@H](c2ccc(Br)cc2)[C@H]1C(=O)Nc1cccc2cccnc12 [MY-3B]
2. C=CC(=O)N1C[C@H](c2ccc(Br)cc2)[C@@H]1C(=O)Nc1cccc2cccnc12
3. C=CC(=O)N1C[C@H](c2ccc(Br)cc2)[C@H]1C(=O)Nc1cccc2cccnc12 [MY-3A]

[A]
1: 67; 2: 14; 3: 24

---

Target: TANC1_C800 (Homo sapiens, UniProt Q9C0D5)
Construct: endogenous in cells; host or cells: 22Rv1
Experiment: IA-DTB cysteine engagement
Type: binding
Details: 22Rv1 cells, 20 μM probe, 1 h, relative to DMSO
MEASUREMENT_LABEL: % engagement TANC1_C800 (%)
One number for each entry, in %.

{"COMPOUND": "C=CC(=O)N1C[C@H](c2ccc(Br)cc2)[C@H]1C(=O)Nc1cccc2cccnc12 [MY-3A]", "UNIT_INFO": "%", "% engagement TANC1_C800": 12.5}
{"COMPOUND": "C=CC(=O)N1C[C@H](c2ccc(Br)cc2)[C@H]1C(=O)Nc1cccc2cccnc12 [MY-3B]", "UNIT_INFO": "%", "% engagement TANC1_C800": 83.5}
{"COMPOUND": "C=CC(=O)N1C[C@H](c2ccc(Br)cc2)[C@@H]1C(=O)Nc1cccc2cccnc12", "UNIT_INFO": "%", "% engagement TANC1_C800": 3}

Now consider the entry below.
[Q] Supply measured % engagement TANC1_C800 of C=CC(=O)N1C[C@@H](c2ccc(Br)cc2)[C@H]1C(=O)Nc1cccc2cccnc12 in your reply.
[A] −2

---

Molecular target: TRPM4_C758 (Homo sapiens)
Construct: endogenous in cells; host or cells: 22Rv1
Sequence (Q8TD43 whole entry): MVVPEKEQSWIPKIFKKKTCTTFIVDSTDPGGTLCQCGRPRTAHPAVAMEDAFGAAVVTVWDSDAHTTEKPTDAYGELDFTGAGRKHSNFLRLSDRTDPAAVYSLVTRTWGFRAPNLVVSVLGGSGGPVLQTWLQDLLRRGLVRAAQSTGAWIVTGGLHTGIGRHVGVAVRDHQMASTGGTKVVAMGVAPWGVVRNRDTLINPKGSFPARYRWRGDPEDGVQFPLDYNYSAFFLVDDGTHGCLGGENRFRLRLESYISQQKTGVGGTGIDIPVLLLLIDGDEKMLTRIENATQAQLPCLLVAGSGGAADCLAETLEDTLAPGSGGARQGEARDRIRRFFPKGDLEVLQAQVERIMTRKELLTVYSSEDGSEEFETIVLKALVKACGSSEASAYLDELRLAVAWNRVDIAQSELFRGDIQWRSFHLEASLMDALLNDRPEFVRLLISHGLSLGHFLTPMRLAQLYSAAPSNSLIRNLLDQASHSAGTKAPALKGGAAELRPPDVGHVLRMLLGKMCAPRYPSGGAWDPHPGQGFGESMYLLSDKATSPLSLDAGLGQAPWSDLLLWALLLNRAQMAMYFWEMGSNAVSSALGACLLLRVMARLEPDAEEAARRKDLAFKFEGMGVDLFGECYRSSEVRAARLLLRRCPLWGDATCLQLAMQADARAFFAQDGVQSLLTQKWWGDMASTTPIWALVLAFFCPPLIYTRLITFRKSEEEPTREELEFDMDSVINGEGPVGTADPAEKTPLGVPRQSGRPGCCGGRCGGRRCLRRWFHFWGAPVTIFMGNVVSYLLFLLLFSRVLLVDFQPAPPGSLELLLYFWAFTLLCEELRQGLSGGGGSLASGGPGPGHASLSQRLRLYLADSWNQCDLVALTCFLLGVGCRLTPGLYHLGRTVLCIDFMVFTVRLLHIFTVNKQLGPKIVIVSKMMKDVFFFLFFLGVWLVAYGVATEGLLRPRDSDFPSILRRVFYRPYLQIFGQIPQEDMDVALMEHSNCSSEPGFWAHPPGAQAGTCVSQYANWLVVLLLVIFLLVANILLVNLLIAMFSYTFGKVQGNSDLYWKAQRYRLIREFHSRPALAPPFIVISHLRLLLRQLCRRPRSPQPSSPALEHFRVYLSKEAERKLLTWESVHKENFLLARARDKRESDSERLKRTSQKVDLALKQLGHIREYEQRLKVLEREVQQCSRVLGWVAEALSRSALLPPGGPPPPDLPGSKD
Assay: IA-DTB cysteine engagement
Assay type: binding
Details: 22Rv1 cells, 20 μM probe, 1 h, relative to DMSO
I'd appreciate it if you could supply % engagement TRPM4_C758 values for the items below.
Give bare numbers, in %.

{"COMPOUND": "C=CC(=O)N1C[C@@H](c2ccc(Br)cc2)[C@H]1C(=O)Nc1cccc2cccnc12", "UNIT_INFO": "%", "MEASUREMENT": 40.5}
{"COMPOUND": "C=CC(=O)N1C[C@H](c2ccc(Br)cc2)[C@H]1C(=O)Nc1cccc2cccnc12 [MY-3A]", "UNIT_INFO": "%", "MEASUREMENT": 29.5}
{"COMPOUND": "C=CC(=O)N1C[C@H](c2ccc(Br)cc2)[C@@H]1C(=O)Nc1cccc2cccnc12", "UNIT_INFO": "%", "MEASUREMENT": 54.5}

In the following, a different compound is considered.
[Q] Tell me measured % engagement TRPM4_C758 for C=CC(=O)N1C[C@H](c2ccc(Br)cc2)[C@H]1C(=O)Nc1cccc2cccnc12 [MY-3B] please.
[A] 73.5

---

Target: CKAP4_C100 (Homo sapiens, UniProt Q07065)
Construct: endogenous in cells; host or cells: 22Rv1
Sequence (Q07065 1-602): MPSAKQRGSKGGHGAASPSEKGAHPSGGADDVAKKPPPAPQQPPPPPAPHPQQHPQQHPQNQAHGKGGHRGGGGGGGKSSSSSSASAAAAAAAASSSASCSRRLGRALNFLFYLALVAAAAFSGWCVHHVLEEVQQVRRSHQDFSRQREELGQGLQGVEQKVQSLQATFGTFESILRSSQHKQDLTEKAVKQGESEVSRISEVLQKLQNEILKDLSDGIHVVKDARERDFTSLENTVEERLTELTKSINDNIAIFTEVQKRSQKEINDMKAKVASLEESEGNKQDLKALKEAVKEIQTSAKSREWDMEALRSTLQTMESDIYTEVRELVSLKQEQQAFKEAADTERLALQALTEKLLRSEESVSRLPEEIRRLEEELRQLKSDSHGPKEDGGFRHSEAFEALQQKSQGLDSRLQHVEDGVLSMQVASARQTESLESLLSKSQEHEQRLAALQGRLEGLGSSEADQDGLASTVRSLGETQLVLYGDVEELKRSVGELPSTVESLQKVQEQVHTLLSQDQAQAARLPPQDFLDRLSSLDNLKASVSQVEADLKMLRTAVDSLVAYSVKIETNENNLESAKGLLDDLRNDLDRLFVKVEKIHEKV
Assay: IA-DTB cysteine engagement
Type: binding
Settings: 22Rv1 cells, 20 μM probe, 1 h, relative to DMSO
MEASUREMENT_LABEL: % engagement CKAP4_C100 (%)
Answers are plain numbers, in %.

Completed entries (count: 3):
{"COMPOUND": "C=CC(=O)N1C[C@H](c2ccc(Br)cc2)[C@@H]1C(=O)Nc1cccc2cccnc12", "SYSTEM_TESTED": "CKAP4_C100 (Homo sapiens, UniProt Q07065)", "MEASUREMENT_LABEL": "% engagement CKAP4_C100", "MEASUREMENT": 90.25}
{"COMPOUND": "C=CC(=O)N1C[C@H](c2ccc(Br)cc2)[C@H]1C(=O)Nc1cccc2cccnc12 [MY-3B]", "SYSTEM_TESTED": "CKAP4_C100 (Homo sapiens, UniProt Q07065)", "MEASUREMENT_LABEL": "% engagement CKAP4_C100", "MEASUREMENT": 93.75}
{"COMPOUND": "C=CC(=O)N1C[C@@H](c2ccc(Br)cc2)[C@H]1C(=O)Nc1cccc2cccnc12", "SYSTEM_TESTED": "CKAP4_C100 (Homo sapiens, UniProt Q07065)", "MEASUREMENT_LABEL": "% engagement CKAP4_C100", "MEASUREMENT": 84}

Alright, here's another compound for you.
[Q] Query % engagement CKAP4_C100 for C=CC(=O)N1C[C@H](c2ccc(Br)cc2)[C@H]1C(=O)Nc1cccc2cccnc12 [MY-3A]
[A] 78.75
